Measured values drawn from paper PMC8655237 for this set.

assayed_system: COX-2 (Homo sapiens, UniProt P35354)
Sequence (P35354 18-604): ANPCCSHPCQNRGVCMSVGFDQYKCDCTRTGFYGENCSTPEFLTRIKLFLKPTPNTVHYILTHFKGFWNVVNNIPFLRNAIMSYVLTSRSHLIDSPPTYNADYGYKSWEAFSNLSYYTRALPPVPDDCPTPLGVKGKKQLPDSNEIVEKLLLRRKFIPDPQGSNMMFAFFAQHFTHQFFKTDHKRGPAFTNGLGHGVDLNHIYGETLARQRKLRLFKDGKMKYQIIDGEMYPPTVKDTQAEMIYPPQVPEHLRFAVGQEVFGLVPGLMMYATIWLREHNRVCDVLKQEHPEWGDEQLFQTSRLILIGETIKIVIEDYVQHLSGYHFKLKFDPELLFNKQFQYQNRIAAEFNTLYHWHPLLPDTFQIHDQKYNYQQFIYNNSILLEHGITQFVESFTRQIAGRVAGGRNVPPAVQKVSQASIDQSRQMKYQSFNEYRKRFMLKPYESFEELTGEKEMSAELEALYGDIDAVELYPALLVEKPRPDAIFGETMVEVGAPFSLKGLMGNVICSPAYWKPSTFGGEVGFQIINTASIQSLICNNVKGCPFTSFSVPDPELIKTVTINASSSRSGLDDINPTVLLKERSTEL
method_summary: COX-2 assay, cell-free
Format: biochemical
assay_readout: IC50 (µM)
Kindly answer with a numeric value in µM, unit omitted.

query: // query IC50 value for entry CC(C)[C@@H]1CC[C@@H](C)C[C@@H]1O [neomenthol, (+)-Neomenthol]
result: 81

* * *

assayed_system: Ornithine decarboxylase (ODC) (Homo sapiens)
Sequence (P11926 whole entry): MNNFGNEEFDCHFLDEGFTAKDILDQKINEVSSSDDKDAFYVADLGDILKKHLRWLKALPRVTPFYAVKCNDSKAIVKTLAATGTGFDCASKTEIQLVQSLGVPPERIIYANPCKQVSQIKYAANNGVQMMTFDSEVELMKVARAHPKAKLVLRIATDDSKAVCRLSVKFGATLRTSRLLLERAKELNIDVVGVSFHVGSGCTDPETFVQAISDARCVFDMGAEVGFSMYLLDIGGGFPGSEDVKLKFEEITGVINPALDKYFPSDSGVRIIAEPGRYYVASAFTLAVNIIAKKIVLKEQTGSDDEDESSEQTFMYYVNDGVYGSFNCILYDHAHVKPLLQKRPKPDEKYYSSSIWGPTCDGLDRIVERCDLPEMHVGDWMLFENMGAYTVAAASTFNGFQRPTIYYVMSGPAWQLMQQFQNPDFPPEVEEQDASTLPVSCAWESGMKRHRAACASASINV
method_summary: ODC assay, cell-based
condition_summary: IC50 ODC, cell based, MDA-MB-231
assay_readout: IC50
Please answer using a numeric value trailed by its unit.

query: // query IC50 value for entry CC(C)[C@@H]1CC[C@@H](C)C[C@@H]1O [neomenthol, (+)-Neomenthol]
result: 57.2 µM

* * *

assayed_system: Cathepsin D (CATD) (Homo sapiens, UniProt P07339)
Sequence (P07339 65-412): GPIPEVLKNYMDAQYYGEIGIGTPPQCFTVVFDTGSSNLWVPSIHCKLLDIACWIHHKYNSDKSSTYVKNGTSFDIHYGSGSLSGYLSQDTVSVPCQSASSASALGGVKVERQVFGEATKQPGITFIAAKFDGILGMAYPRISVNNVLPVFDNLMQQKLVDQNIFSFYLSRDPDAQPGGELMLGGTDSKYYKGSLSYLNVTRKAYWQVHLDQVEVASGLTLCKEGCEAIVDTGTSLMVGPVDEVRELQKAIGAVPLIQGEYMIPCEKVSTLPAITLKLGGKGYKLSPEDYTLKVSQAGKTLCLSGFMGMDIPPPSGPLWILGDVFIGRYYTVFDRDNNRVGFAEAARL
method_summary: Cathepsin D assay, cell-based
condition_summary: IC50 CAT D, A549
assay_readout: pIC50
Just so you know, pIC50 here is -log10 of the concentration in molar units; reply with that number alone.

query: // query pIC50 value for entry CC(C)[C@@H]1CC[C@@H](C)C[C@@H]1O [neomenthol, (+)-Neomenthol]
result: 4.21

* * *

Provide the recorded IC50 for the entries that follow.
Test system: A431
method_summary: SRB antiproliferative assay
Type: cell-based
condition_summary: Homo sapiens, A-431, 24 h, read-out: IC50 (SRB)
Kindly answer with a numeric value in µM, unit omitted.

query: // query IC50 value for entry CC(C)[C@@H]1CC[C@@H](C)C[C@@H]1O [neomenthol, (+)-Neomenthol]
result: 82.1

query: What would you report for COc1cccc2c1C(=O)c1c(O)c3c(c(O)c1C2=O)C[C@@](O)(C(=O)CO)C[C@@H]3O[C@H]1C[C@H](N)[C@H](O)[C@H](C)O1 [Doxorubicin, reference compound] ?
result: 1.21
